- EXPERIMENT: Pharmacokinetic study, 3 mg/kg IV, 10 mg/kg PO and 10 mg/kg PO QD*3, plasma, liver and bone
- Type: in vivo, mouse
- CONDITION NOTES: female, C57BL/6J, mouse, bone (long bones), po, 10 mg/kg, bone, PO (QD*3), 1 h, individual animals; read-out: Bone 6641 PO (QD*3) concentration
- Method: The concentration of compound in plasma, liver, and long bones was detected using liquid chromatography tandem mass spectrometry (LC-MS/MS). […] IV administration, one 10 mg/kg PO administration and three 10 mg/kg PO administrations (QD*3). a Plasma, b liver and c bone profiles in female mice. The actual concentration (ng/g) is the detected value (ng/mL) multiplied by 4. […] Results are expressed as the mean ± SEM.
MEASURED QUANTITY: concentration at 1 h (ng/g)
Give bare numbers, in ng/g.

Value lookup for concentration at 1 h; key = O=C1Nc2ccc(-c3cc(C(F)(F)F)cc(C(F)(F)F)c3)cc2C(=O)N2CCN(C(=O)COc3ccc(OC(F)(F)F)cc3I)C[C@@H]12
168

Values from paper PMC9636434
